biological target: COX-2 (Homo sapiens); construct: endogenous in cells; host or cells: fresh human whole blood; experiment: COX-2 inhibition, human whole blood (Prostaglandin E2 EIA); type: cell-based; conditions: mean ± SD, triplicate unless d n = 1, e n = 2; read-out: IC50 COX-2 Human WB
Sequence (P35354 18-604): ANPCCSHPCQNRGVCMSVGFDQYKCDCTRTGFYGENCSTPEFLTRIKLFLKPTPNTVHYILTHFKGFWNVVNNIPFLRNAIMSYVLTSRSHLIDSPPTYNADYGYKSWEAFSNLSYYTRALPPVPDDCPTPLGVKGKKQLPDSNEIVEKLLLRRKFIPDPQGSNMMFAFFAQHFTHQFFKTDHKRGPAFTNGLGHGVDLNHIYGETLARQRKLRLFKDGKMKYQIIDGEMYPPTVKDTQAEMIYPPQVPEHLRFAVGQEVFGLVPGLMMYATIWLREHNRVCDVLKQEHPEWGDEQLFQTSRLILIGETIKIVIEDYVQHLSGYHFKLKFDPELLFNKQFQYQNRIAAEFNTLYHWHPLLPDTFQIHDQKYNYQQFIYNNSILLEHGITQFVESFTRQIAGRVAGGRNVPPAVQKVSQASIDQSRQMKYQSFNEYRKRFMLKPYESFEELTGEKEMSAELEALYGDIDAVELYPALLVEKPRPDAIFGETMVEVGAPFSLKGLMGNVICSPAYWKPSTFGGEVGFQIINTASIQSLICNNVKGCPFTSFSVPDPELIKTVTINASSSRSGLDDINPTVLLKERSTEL
pIC50: −log10 of the molar value.
PROPERTY: pIC50

Known pIC50 results, listed for orientation:
[[record]]
substance_smiles = "CS(=O)(=O)c1ccc(-c2nc(NCc3cccs3)cc(OCCF)n2)cc1"
test_target = "COX-2 (Homo sapiens)"
number = 8.72

[[record]]
substance_smiles = "CS(=O)(=O)c1ccc(-c2nc(F)cc(NCc3cccs3)n2)cc1"
test_target = "COX-2 (Homo sapiens)"
number = 8.60

[[record]]
substance_smiles = "CSc1cc(NCc2cccs2)nc(-c2ccc(S(C)(=O)=O)cc2)n1"
test_target = "COX-2 (Homo sapiens)"
number = 8.58


a: CCSc1cc(NCc2cccs2)nc(-c2ccc(S(C)(=O)=O)cc2)n1
b: CS(=O)(=O)c1ccc(-c2nc(NCc3cccs3)cc(OCF)n2)cc1
Between item a and item b , which reported pIC50 is smaller? Selection: enter the item's label.
a
